test.description: collision cross section of unmodified peptide (TIMS, N2, iRT-aligned); higher = larger / more extended gas-phase ion
experimental.parameters: charge state: 3

substance | collision cross section, Å²
GEAGPTGPQGEPGVRGIR | 495.75
IQTKAGEATVK | 457.37
GSLGAQKLANTCFNEIEK | 511.29
SRGAIISQYYNR | 465.8
SDSGKPYYYNSQTK | 478.86
FHYQDQEFLK | 457.95
KVTLSVLSR | 443.31
TVSKVDDFLANEAK | 500.46
GEPGIPAIPGIRGPK | 515.69
SLEEEGAAHSGKR | 472.78
FGDSRGGGGNFGPGPGSNFR | 494.59
HTLLRAPAPELLPANVAGR | 530.02
ISALQGKLSK | 435.93
PLRAASPFR | 447.55
GEKGDPGLIGPK | 449.05
GGGGGGGGGAPRGR | 426.09
ITASLCDLKSR | 460.65
SPPLPEHQKIPCNSAEPK | 527.39
SLYASSPGGVYATR | 482.72
GAPGGRGAQLSVPSPAR | 492.17
LEKDYQPGITFIVVQK | 488.88
VGYPGPSGPLGARGIPGIK | 562.22
DFDTALKHYDK | 447.79
VFIGNLNTLVVKKK | 483.04
LEEVTGKLQVAR | 475.59
SPSDSGYSYETIGKTTK | 517.54
GGSAGGRGFFR | 432.59
ANLEKAQAELVGTADEATR | 519.38
EPFSGDHSADGFEVTSR | 491.61
RGATPPAPPRR | 465.11
SLGEPAAGEGSAKR | 478.87
TEVLSPNSKVESK | 483.46
GHPGPPGPPGEQGLPGLAGK | 497.21
KSQAGASELGPFSDPR | 497
GTVPDDAVEALADSLGKK | 520.87
FRSGNYR | 402.54
VILENIASHEPR | 473.55
VLATQPGPGRGR | 447.7
LSEHATAPTR | 452.29

----------
Documented collision cross section across a set of sequences
test.description: collision cross section of modified peptide (TIMS, N2, iRT-aligned); higher = larger / more extended gas-phase ion
experimental.parameters: charge state: 3; modification: Succinyl
recorded.endpoint: collision cross section (Å²)

sequence.string | value.reported
VFIGNLNTLVVKK [_VFIGNLNTLVVK(Succinyl)K_] | 489.97
VGVEVPDVNIEGPEGKLK [_VGVEVPDVNIEGPEGK(Succinyl)LK_] | 499.18
GTISAPGKVVTAAAQAK [_GTISAPGK(Succinyl)VVTAAAQAK_] | 520.85
LLIVSTTPYSEKDTK [_LLIVSTTPYSEK(Succinyl)DTK_] | 480.04
DAIHFYNKSLAEHR [_DAIHFYNK(Succinyl)SLAEHR_] | 520.54
LGNDFHTNKR [_LGNDFHTNK(Succinyl)R_] | 436.15
PSVGSQSNQAGQGKR [_PSVGSQSNQAGQGK(Succinyl)R_] | 455.72
IHVQSSSDSSDEPAEKR [_IHVQSSSDSSDEPAEK(Succinyl)R_] | 507.09
IVEKYGYTHLSAGELLR [_IVEK(Succinyl)YGYTHLSAGELLR_] | 565.13
GADFLVTEVENGGSLGSKK [_GADFLVTEVENGGSLGSK(Succinyl)K_] | 554.56
VGIDTPDIDIHGPEGKLK [_VGIDTPDIDIHGPEGK(Succinyl)LK_] | 540.29
ITESVAETAQTIKK [_ITESVAETAQTIK(Succinyl)K_] | 512.63
FSAYIKNSNPALNDNLEK [_FSAYIK(Succinyl)NSNPALNDNLEK_] | 527.54
ITGKNQVTATK [_ITGK(Succinyl)NQVTATK_] | 446.25
DLSTVEALQNLKNLK [_DLSTVEALQNLK(Succinyl)NLK_] | 537.21
SPPLPEHQKIPCNSAEPK [_SPPLPEHQK(Succinyl)IPCNSAEPK_] | 539.73
LQDVSGQLSSSKK [_LQDVSGQLSSSK(Succinyl)K_] | 468.7
SPDEAYAIAKK [_SPDEAYAIAK(Succinyl)K_] | 452.6
ANLEKAQAELVGTADEATR [_ANLEK(Succinyl)AQAELVGTADEATR_] | 580.29
SSGPGGQNVNKVNSK [_SSGPGGQNVNK(Succinyl)VNSK_] | 443.1
GTVPDDAVEALADSLGKK [_GTVPDDAVEALADSLGK(Succinyl)K_] | 536.91
DDSFLGKLGGTLAR [_DDSFLGK(Succinyl)LGGTLAR_] | 489.32
VGLQVVAVKAPGFGDNR [_VGLQVVAVK(Succinyl)APGFGDNR_] | 542.29
VTLEVGKVIQQGR [_VTLEVGK(Succinyl)VIQQGR_] | 481.23
KYEEIDNAPEER [_K(Succinyl)YEEIDNAPEER_] | 490.15
GFALVGVGSEASSKK [_GFALVGVGSEASSK(Succinyl)K_] | 497.13
SPSDSGYSYETIGKTTK [_SPSDSGYSYETIGK(Succinyl)TTK_] | 530.11
VFIGNLNTLVVKKK [_VFIGNLNTLVVK(Succinyl)KK_] | 514.83
ASDTSSETVFGKR [_ASDTSSETVFGK(Succinyl)R_] | 482.91
DAEAAEATAEGALKAEK [_DAEAAEATAEGALK(Succinyl)AEK_] | 541.32
TEVLSPNSKVESK [_TEVLSPNSK(Succinyl)VESK_] | 458.68
IISSIEQKEENK [_IISSIEQK(Succinyl)EENK_] | 479.06
SKHLQEQLNELK [_SK(Succinyl)HLQEQLNELK_] | 481.12
STGLELETPSLVPVKK [_STGLELETPSLVPVK(Succinyl)K_] | 499.21
PANEKATDDYHYEK [_PANEK(Succinyl)ATDDYHYEK_] | 500.9
FDDTNPEKEEAK [_FDDTNPEK(Succinyl)EEAK_] | 438.25
LQEKVESAQSEQK [_LQEK(Succinyl)VESAQSEQK_] | 502.42
GTITVSAQELKDNR [_GTITVSAQELK(Succinyl)DNR_] | 480.4
LQAAYAGDKADDIQK [_LQAAYAGDK(Succinyl)ADDIQK_] | 489.74
DFDTALKHYDK [_DFDTALK(Succinyl)HYDK_] | 465.49
TFGKAAGPSLSHTSGGTQSK [_TFGK(Succinyl)AAGPSLSHTSGGTQSK_] | 513.01
TQAYQDQKPGTSGLR [_TQAYQDQK(Succinyl)PGTSGLR_] | 483.43
ANEKTESSSAQQVAVSR [_ANEK(Succinyl)TESSSAQQVAVSR_] | 533.43
DYSAPVNFISAGLKK [_DYSAPVNFISAGLK(Succinyl)K_] | 533.85

----------
test.description: collision cross section of modified peptide (TIMS, N2, iRT-aligned); higher = larger / more extended gas-phase ion
experimental.parameters: charge state: 3; modification: Phospho (Y)
recorded.endpoint: collision cross section (Å²)

sequence.string | value.reported
VYSGHQGR [_VY(Phospho (Y))SGHQGR_] | 415.14
YLHDESGLNR [_Y(Phospho (Y))LHDESGLNR_] | 460.83
YTQVGPDHNR [_Y(Phospho (Y))TQVGPDHNR_] | 430.78
VVPGYGHAVLR [_VVPGY(Phospho (Y))GHAVLR_] | 451.71
LEENHYNTYISK [_LEENHYNTY(Phospho (Y))ISK_] | 477.33
AAGQPYEQHAK [_AAGQPY(Phospho (Y))EQHAK_] | 436.55
GVEAVGSYAENQR [_GVEAVGSY(Phospho (Y))AENQR_] | 472.71
AEGYEVAHGGR [_AEGY(Phospho (Y))EVAHGGR_] | 440.52
TSYAQHQQVR [_TSY(Phospho (Y))AQHQQVR_] | 475.13
GPQNATDSYVHK [_GPQNATDSY(Phospho (Y))VHK_] | 452.94
LYAVHQEGNK [_LY(Phospho (Y))AVHQEGNK_] | 466.01
SYHLQIVTK [_SY(Phospho (Y))HLQIVTK_] | 461.35

----------
test.description: collision cross section of modified peptide (TIMS, N2, iRT-aligned); higher = larger / more extended gas-phase ion
experimental.parameters: charge state: 2; modification: Formyl
Binary classification by collision cross section, with 400 Å² as an inclusive lower bound for Met; all other cases are Not met.

sequence.string | assigned.label
ANEKTESSSAQQVAVSR [_ANEK(Formyl)TESSSAQQVAVSR_] | Met
LAEEENKAK [_LAEEENK(Formyl)AK_] | Not met
PSVSTKLISK [_PSVSTK(Formyl)LISK_] | Not met
GGPGSTLSFVGKR [_GGPGSTLSFVGK(Formyl)R_] | Not met
LLEEEDSKLK [_LLEEEDSK(Formyl)LK_] | Not met
DASTLQSQKAEGTGDAK [_DASTLQSQK(Formyl)AEGTGDAK_] | Met
TVSKVDDFLANEAK [_TVSK(Formyl)VDDFLANEAK_] | Met
LDEKENLSAK [_LDEK(Formyl)ENLSAK_] | Not met
VGIDTPDIDIHGPEGKLK [_VGIDTPDIDIHGPEGK(Formyl)LK_] | Met
SEASSEFAKK [_SEASSEFAK(Formyl)K_] | Not met
ILDLKTGTVK [_ILDLK(Formyl)TGTVK_] | Not met
TLDEILQEKK [_TLDEILQEK(Formyl)K_] | Not met
TQAYQDQKPGTSGLR [_TQAYQDQK(Formyl)PGTSGLR_] | Met
ITASLCDLKSR [_ITASLCDLK(Formyl)SR_] | Not met
AGQKLIDVNHYAK [_AGQK(Formyl)LIDVNHYAK_] | Met
GEVGAGAGPGAQAGPSAKR [_GEVGAGAGPGAQAGPSAK(Formyl)R_] | Met
LGNDFHTNKR [_LGNDFHTNK(Formyl)R_] | Not met
VGVEVPDVNIEGPEGKLK [_VGVEVPDVNIEGPEGK(Formyl)LK_] | Met
ITLSKHQNVQLPR [_ITLSK(Formyl)HQNVQLPR_] | Met

Data origin: the supplement of paper PMC10598134
